# condition: GI permeability, 50 μM, 25 °C, 3 h
A collection of compounds and their measured PAMPA
readoutKind: PAMPA

compound="O=C(Nc1ccc(O[C@@H]2O[C@H](CO)[C@@H](O)[C@H](O)[C@H]2O)cc1)c1cc(Cl)ccc1O [Compound 27]" readoutkind=PAMPA result="1.9 10^−6 cm/s"
compound="CC(C)(C)c1cccc(NC(=O)c2cc(Cl)ccc2O)c1 [Compound 12]" readoutkind=PAMPA result="18.7 10^−6 cm/s"
compound="O=C(Nc1ccc(F)c(Cl)c1)c1cc(Cl)ccc1O [Compound 7]" readoutkind=PAMPA result="11.5 10^−6 cm/s"
compound="O=C(Nc1ccc([N+](=O)[O-])cc1Cl)c1cc(F)ccc1O [Compound 22]" readoutkind=PAMPA result="30.7 10^−6 cm/s"

* * *

A collection of compounds and their measured PAMPA
# condition: GI permeability, 50 μM, 25 °C, 3 h
readoutKind: PAMPA

compound=O=C(Nc1cccc(F)c1)c1cc(Cl)ccc1O result="3.7 10^−6 cm/s"
compound=O=C(Nc1ccc(C(F)(F)F)cc1)c1cc(Cl)ccc1O result="6.9 10^−6 cm/s"
compound=Cc1ccc(CNC(=O)c2cc(Cl)ccc2O)cc1 result="42.6 10^−6 cm/s"
compound="O=C(Nc1ccc([N+](=O)[O-])cc1Cl)c1ccccc1 [Compound 19, N-(2-chloro-4-nitrophenyl)benzamide]" result="42.2 10^−6 cm/s"
compound=O=C(Nc1ccc([N+](=O)[O-])cc1Cl)c1ccccc1O result="15.3 10^−6 cm/s"
compound=Cc1ccc(C(=O)Nc2ccc([N+](=O)[O-])cc2Cl)c(O)c1 result="6.1 10^−6 cm/s"
compound="O=C(Nc1ccccc1)c1cc(Cl)ccc1O [Compound 2, 5-Chlorosalicylanilide]" result="16.0 10^−6 cm/s"
compound=Cc1ccc(O)c(C(=O)Nc2ccc([N+](=O)[O-])cc2Cl)c1 result="20.9 10^−6 cm/s"
compound=O=C(Nc1cccc(Cl)c1)c1cc(Cl)ccc1O result="8.6 10^−6 cm/s"

* * *

A collection of molecules and their measured PAMPA
# condition: GI permeability, 50 μM, 25 °C, 3 h
readoutKind: PAMPA

molecule="O=C(Nc1ccc(N2CCCCC2)cc1)c1cc(Cl)ccc1O [Compound 15]" readoutkind=PAMPA result="43.3 10^−6 cm/s"
molecule="O=C(Nc1cccc([N+](=O)[O-])c1)c1cc(Cl)ccc1O [Compound 4]" readoutkind=PAMPA result="19.5 10^−6 cm/s"
molecule="O=C(Nc1cccc(C(F)(F)F)c1)c1cc(Cl)ccc1O [Compound 11]" readoutkind=PAMPA result="4.2 10^−6 cm/s"
molecule="O=C(Nc1ccc([N+](=O)[O-])cc1Cl)c1cc(Cl)ccc1O [Compound 1]" readoutkind=PAMPA result="8.5 10^−6 cm/s"
molecule="Cc1cccc(CNC(=O)c2cc(Cl)ccc2O)c1 [Compound 17]" readoutkind=PAMPA result="28.4 10^−6 cm/s"

* * *

# assayNotes: in vitro
# condition: PAMPA
readoutKind: Papp

smilesstr=O=C(Nc1ccc([N+](=O)[O-])cc1)c1cc(Cl)ccc1O result="12.4 ×10⁻⁶ cm/s"
smilesstr=O=C(Nc1ccc(F)cc1)c1cc(Cl)ccc1O result="18.2 ×10⁻⁶ cm/s"

Numbers sourced from paper PMC8933873.
